# System: Bacillus cereus ATCC 11778
# Format: cell-based
Non-standard residues stand in square brackets, D forms with d. Residues, ends and D or L forms follow the SMILES beside them.

# Compound, Target of assay, B. cerius MIC [µg/mL]
data = [
    ("CC(C)C[C@H]1NC(=O)[C@H](Cc2c[nH]c3ccccc23)NC(=O)[C@@H](CCCCN)NC(=O)[C@H](CCCNC(=N)N)NC(=O)[C@@H](CCCNC(=N)N)NC(=O)[C@H](Cc2c[nH]c3ccccc23)NC(=O)[C@@H](CC(C)C)NC(=O)[C@H](CO)NC1=O [SEQ ID NO:112, [RRKWLSLW]] (cyclo([dR]R[dK]W[dL]S[dL]W))", "Bacillus cereus ATCC 11778", 13),
    ("CC(C)C[C@@H](N)C(=O)N[C@@H](Cc1c[nH]c2ccccc12)C(=O)N[C@H](CCCNC(=N)N)C(=O)N[C@@H](CCCNC(=N)N)C(=O)N[C@H](CCCCN)C(=O)N[C@@H](Cc1c[nH]c2ccccc12)C(=O)N[C@H](CC(C)C)C(=O)N[C@@H](Cc1c[nH]c2ccccc12)C(N)=O [SEQ ID NO:137, H-LWRRKWLW-NH2] (H-[dL]W[dR]R[dK]W[dL]W-NH2)", "Bacillus cereus ATCC 11778", 9),
    ("CC(C)C[C@H]1NC(=O)[C@H](CO)NC(=O)[C@@H](CCCCN)NC(=O)[C@H](Cc2c[nH]c3ccccc23)NC(=O)[C@@H](CC(C)C)NC(=O)[C@H](Cc2c[nH]c3ccccc23)NC1=O [SEQ ID NO:28, cyclo-(D-Lys-Ser-D-Leu-Trp-D-Leu-Trp)] (cyclo(S[dL]W[dL]W[dK]))", "Bacillus cereus ATCC 11778", 15),
]
